Overview of recorded tissue uptake at 1 h for various molecules
# Test description: in vivo
# Parameters: species or system mice
# Run conditions: male, NODSCID 1L2RγKO, mouse, iv, total radioactivity, Liver uptake
Record the result as number plus unit.

{"Molecule": "COc1ccc(CCCC(=O)NCC(=O)N[C@@H](CCCCNC(=O)CN2CCN(CC(=O)O)CCN(CC(=O)O)CCN(CC(=O)O)CC2)C(=O)NC[C@H]2CC[C@H](C(=O)N[C@@H](Cc3c4ccccc4cc4ccccc34)C(=O)NCCCC[C@H](NC(=O)N[C@@H](CSCC(=O)O)C(=O)O)C(=O)O)CC2)cc1 [177Lu-HTK04048, metal not drawn]", "tissue uptake at 1 h": "3.95 %ID/g"}

Q: What value of measured tissue uptake at 1 h is listed for COc1ccc(CCCC(=O)NCC(=O)N[C@@H](CCCCNC(=O)CN2CCN(CC(=O)O)CCN(CC(=O)O)CCN(CC(=O)O)CC2)C(=O)NC[C@H]2CC[C@H](C(=O)N[C@@H](Cc3c4ccccc4cc4ccccc34)C(=O)NCCCC[C@H](NC(=O)N[C@@H](CCCC(=O)O)C(=O)O)C(=O)O)CC2)cc1 [177Lu-HTK03170, metal not drawn] ?
Ans: 2.67 %ID/g

Just for reference, patent US11504441B2 is where these values come from.
